# PROTOCOL DESCRIPTION: Cmax in Sprague-Dawley rat at 2.4 mg/kg administered via oral gavage measured up to 4 hrs by LC/MS/MS analysis
# Assay type: ADME, organism-based
# Set-up: dose 2.4 mg/kg, route oral
# CONDITION NOTES: in vivo
QUANTITY: Cmax
A bare number is not enough; add the unit after it.

Reported Cmax ( `N=C(N)N1CCN(c2cccc(-c3nc(N=C(N)N)nc4ccc(Cl)cc34)c2)CC1` ) = 2 ng/mL

###

# PROTOCOL DESCRIPTION: AUC in Sprague-Dawley rat at 27 mg/kg administered via oral gavage measured up to 4 hrs by LC/MS/MS analysis
# Type: ADME, organism-based
# Parameters: time < 4 hr, dose 27 mg/kg, route oral
# CONDITION NOTES: in vivo
QUANTITY: AUC at 4 h

Input CN1Cc2c(Cl)cc(Cl)cc2[C@H](c2ccc(S(=O)(=O)NCCOCCOCCOCCNC(=O)C(O)C(O)C(=O)NCCOCCOCCOCCNS(=O)(=O)c3ccc([C@@H]4CN(C)Cc5c(Cl)cc(Cl)cc54)cc3)cc2)C1 (single isomer, unassigned) . Output AUC at 4 h: < 5.3 ng·h/mL

The measured values listed here are drawn from ChEMBL document CHEMBL3881530.
